Experiment: NCI Yeast Anticancer Drug Screen. Data for the rad18 strain (AID 177)
Settings: S. cerevisiae rad18 mutant growth inhibition; at 100.0 µM; active compounds read high
Experimental: Growth inhibition of yeast strains with defined genetic alterations is measured as a screen for potential anti-cancer activity. Selected strains with alterations in DNA damage repair or cell cycle control were exposed to compounds and growth inhibition was measured relative to vehicle treated controls. The strain used in this assay is rad18
The panel holds about 79,000 compounds, 15% with a hit somewhere; the sample as a whole holds those more often.
Please note: y applies when growth inhibition is 90% or greater, and n applies otherwise.

# Molecule, Qualitative label
measured = [
    ("CC1C=CN(N(C)C)C2=C1C(=O)c1cnccc1C2=O (stereo not given)", "y"),
    ("O=Cn1c2ccccc2c2ccccc21", "n"),
    ("S=c1[nH]nc(Cc2ccccc2)c(=S)[nH]1", "y"),
    ("C#CC1=CC(=O)C(OC)=CC1=O", "y"),
    ("C[Si](C)(C)Cc1ccccc1C(=O)O", "y"),
    ("O=c1[nH]c(=O)n(CCCO)cc1F", "n"),
    ("Nc1ccc2cc(Br)c3ccccc3c2c1", "n"),
    ("O=C(CCCN1CCC2(CC1)OC(=O)N(c1ccccc1)C2=O)c1ccccc1", "n"),
    ("CCC(C)C(=O)OCC(=O)c1ccc(-c2ccccc2)cc1 (stereo not given)", "n"),
    ("COc1ccc2nc3cccc([N+](=O)[O-])c3c(NCCCO)c2c1", "y"),
    ("CNC(=O)OCc1c(COC(=O)NC)c(C)n(-c2ccc(Cl)c(Cl)c2)c1C", "y"),
    ("N=c1oc2ccccc2cc1-c1nc2ccccc2[nH]1", "n"),
    ("Cc1ccc(N(C=O)c2c([N+](=O)[O-])cc([N+](=O)[O-])c3c2=[N+]([O-])CN=3)cc1", "y"),
    ("O=[N+]([O-])c1ccc2nnnn2c1", "n"),
    ("Cc1[nH]nc(C(F)(F)F)c1N=NN(C)C", "y"),
    ("[Cl][Pt+2][Cl].[NH-]CC1(C[NH-])CCCCC1", "y"),
    ("CC1=Cc2ccc(C)cc2C(=O)C1=O", "y"),
    ("COc1ccc(/C(=N/O)c2ccccc2C2=Nc3ccccc3C(NCc3ccccc3)O2)cc1C (stereo not given)", "y"),
    ("c1cncc(C(Nc2cccc3cccnc23)Nc2cccc3cccnc23)c1", "y"),
    ("CSc1ccc2c(c1)C(N1CCN(C)CC1)Cc1ccccc1S2 (stereo not given)", "y"),
    ("Oc1ccc(Cc2nccc3cc(O)c(O)cc23)cc1O", "n"),
    ("CCOC(=O)/C(O)=C(/C=N/C(=S)Nc1c(CC)cccc1CC)C(=O)OCC", "n"),
]

----------
experiment: NCI Yeast Anticancer Drug Screen. Data for the cln2 rad14 strain (AID 165);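 further: 0% = growth equal to vehicle treated cultures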; conditions: S. cerevisiae cln2 rad14 strain, at 50.0 µM (retest, dose inferred, filed as 5.0), active compounds read high
The panel holds about 79,000 compounds, 15% with a hit somewhere; the sample as a whole holds those more often.
Please note: 1 (yes) applies when growth inhibition is 80% or greater, and 0 (no) applies otherwise.

# Compound, Qualitative label
rows = [
    ("O=CC(=C(I)I)c1ccccc1", "1 (yes)"),
    ("COc1ccc(/C=C2\\S/C(=N/Nc3nc(-c4ccccc4)cs3)NC2=O)cc1OC", "1 (yes)"),
    ("CCCCCC/C(C)=N/Nc1ccc([N+](=O)[O-])cc1[N+](=O)[O-]", "0 (no)"),
    ("Cc1cnccc1N=Nc1ccc(N(C)C)cc1", "0 (no)"),
    ("[O-]c1c2cc(-[n+]3c(-c4ccccc4)cc(-c4ccccc4)cc3-c3ccccc3)cc1COCCOCCOCCOCCOC2", "0 (no)"),
    ("COc1ccc(/C(=N/O)c2ccccc2C2=Nc3ccccc3C(NCc3ccccc3)O2)cc1C (centres undefined)", "0 (no)"),
    ("CC1=Cc2ccc(C)cc2C(=O)C1=O", "1 (yes)"),
    ("O=c1[nH]c(=O)n(CCCO)cc1F", "0 (no)"),
]

----------
test: NCI Yeast Anticancer Drug Screen. Data for the mec2-1 strain (AID 157); conditions: S. cerevisiae mec2-1 strain, at 50.0 µM (retest, dose inferred, filed as 5.0)
About 79,000 compounds went through this panel and 15% of them were active in at least one assay; those are over-represented in the sample as a whole. Active and inactive are the calls of the source. No stated cut-off is given here; in the data, active means growth inhibition above about 70%; inactive means the rest.
Outcomes: Yes (active), No (inactive)

# Compound, Qualitative label
data = [
    ("CCC(C)/C(C)=N/NC(N)=O (stereo not drawn)", "No"),
    ("CC1=Cc2ccc(C)cc2C(=O)C1=O", "Yes"),
    ("Nc1ccc2ncc(Nc3ccc(Cl)c(Cl)c3)nc2c1", "Yes"),
    ("O=C(Nc1ccn(C2CC(O)C(COC(c3ccccc3)(c3ccccc3)c3ccccc3)O2)c(=O)n1)c1ccccc1 (stereo not drawn)", "Yes"),
    ("CC[N+]1(C)CCC(O)(/C=C/c2ccc(Cl)c(Cl)c2)C(C(=O)/C=C/c2ccc(Cl)c(Cl)c2)C1 (stereo not drawn)", "Yes"),
    ("CCCCCC(=O)C(C)(c1nc2n(c1O)/C(=N/C(=O)Nc1ccc(Cl)cc1)N=N2)c1nc2n(c1O)/C(=N/C(=O)Nc1ccc(Cl)cc1)N=N2", "No"),
    ("[O-]c1c2cc(-[n+]3c(-c4ccccc4)cc(-c4ccccc4)cc3-c3ccccc3)cc1COCCOCCOCCOCCOC2", "No"),
    ("O=c1[nH]c(=O)n(CCCO)cc1F", "No"),
    ("Clc1ccc(C(c2ccc(Cl)cc2)N2CCNCC2)cc1", "Yes"),
    ("CC(C)OC(CCC#N)c1ccc(Cl)cc1 (stereo not drawn)", "Yes"),
    ("COc1ccc(C(=O)NCCN(C)C)c2nc3ccccc3cc12", "No"),
    ("CCC1SC(=S)N(c2ccc(Cl)cc2)C1=O (stereo not drawn)", "No"),
    ("Cc1ccc(SSc2ccc(C)cc2[N+](=O)[O-])c([N+](=O)[O-])c1", "Yes"),
    ("CCc1nc2ccc(N=Nc3c(O)ccc4ccccc34)cc2[nH]1", "No"),
    ("Cc1cc(NCCCN(C)C)c2ccc3c(ccc4c(NCCCN(C)C)cc(C)nc43)c2n1", "No"),
    ("O=S(=O)(CCC[C@H]1[C@@H](CCOCc2ccccc2)C2CCCN1O2)c1ccccc1 (stereo partly drawn)", "No"),
    ("O=c1c(Br)cc2c(-c3ccccc3)c3cc(Br)c(O)c(Br)c3oc-2c1Br", "No"),
    ("Cc1cc(NC(=S)SCc2ccc(Cl)cc2)ccc1Cl", "Yes"),
]

----------
assay: NCI Yeast Anticancer Drug Screen. Data for the rad50EPP+ strain (AID 151);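 further: 0% = growth of vehicle-treated control cultures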; conditions: S. cerevisiae rad50 mutant strain, at 100.0 µM, active compounds read high
This is part of a sample that, as a whole, favours compounds with a hit. Of some 79,000 tested, about 15% had one in any assay.
Please note: class 1 applies when growth inhibition is 80% or greater, and class 0 applies otherwise.

# Compound, Qualitative label
rows = [
    ("CCCCCCCCCCCCCCCCOCC(Cl)COP(=O)(O)OP(=O)(O)OCC1OC(n2cnc3c(N)ncnc32)C(O)C1O (stereo not drawn)", "class 1"),
    ("Cc1ccc2nc(N/N=C/c3ccc(C)s3)cc(C)c2c1", "class 0"),
    ("CC(O)CN1C(=O)c2cccc3cc([N+](=O)[O-])cc(c23)C1=O (stereo not drawn)", "class 0"),
    ("Cc1ccc(Nc2n[nH]c(=S)s2)cc1C", "class 0"),
    ("COc1cc(NCCCCCNC(C)C)c2ncccc2c1Cl", "class 0"),
    ("Cc1cnc(/C=N\\NC(N)=S)c2cccc(N)c12", "class 0"),
    ("N=C(N)c1ccc(N=Nc2c(O)ccc3c2[nH]c2ccccc23)cc1", "class 1"),
    ("O=c1[nH]cc(F)c(=O)[nH]1", "class 1"),
    ("COC1=C(N=[N+]=[N-])C(=O)c2ncccc2C1=O", "class 1"),
    ("Cc1nc2ccc(Br)cc2c(=O)n1-c1ccc(NC2OCC(O)C(O)C2O)cc1 (stereo not drawn)", "class 0"),
    ("O=C1c2ccccc2C(=O)C1C(c1ccc(F)cc1)C1C(=O)c2ccccc2C1=O", "class 0"),
    ("CC(C)(C(=O)NN)c1ccccc1", "class 1"),
    ("O=C1C(C(O)(C(F)(F)F)C(F)(F)F)CCC1C(O)(C(F)(F)F)C(F)(F)F (stereo not drawn)", "class 0"),
    ("COc1ccc(/C=C2\\S/C(=N/Nc3nc(-c4ccccc4)cs3)NC2=O)cc1OC", "class 1"),
    ("CCCCCCCCCCCCOC1C(COCCN2CCCC2)OC2OC(C)(C)OC21 (stereo not drawn)", "class 1"),
    ("CCOc1nc(OCC)nc(-c2cccn2-c2ccccc2)n1", "class 0"),
    ("CCCC(=O)OC(OC(=O)CCC)c1ccc([N+](=O)[O-])o1", "class 1"),
    ("Cc1cccc(N2CCN(C(=O)/C(=C/c3ccccc3)NC(=O)c3ccccc3)CC2)c1", "class 0"),
    ("N#C/C(=C1C=C/C(=N\\O)C(Cl)=C\\1)c1ccccc1", "class 0"),
    ("O=C(/C(=C/c1ccccc1)CBr)c1ccccc1", "class 1"),
    ("CCOC(=O)c1sc2[n+](c1C)C(=O)/C(=C/c1cc(OC)c(OC)c(OC)c1)S2", "class 0"),
    ("Cc1cc(N(CCOS(C)(=O)=O)CCOS(C)(=O)=O)ccc1C=O", "class 0"),
]

Source listed as PubChem BioAssay (NCI).
